The values you see were collected from ChEMBL document CHEMBL5380844.

- method.description: Half life in ICR mouse at 10 mg/kg, po measured upto 24 hrs by LC-MS/MS analysis
- Type: ADME, organism-based
- condition: in vivo
reported.metric: half-life (h)
Express the result in h but write the number alone.

> print(dat)
                                 cpd.smiles  reported.metric  recorded.number
1  Cc1ccc(-c2cc(=O)oc3cc(O[C@H](C)C(=O)N4CC5CCC(C4)N5C)ccc23)c(C)c1        half-life              2.3

Okay, next one:
State the recorded half-life for this entry: "Cc1ccc(-c2cc(=O)oc3cc(O[C@H](C)C(=O)N4CC5CCC(C4)N5)ccc23)c(C)c1"
2.67

----------
# Lookup of reported clearance keyed by entry
- method.description: Clearance in ICR mouse at 1 mg/kg, iv measured upto 24 hrs by LC-MS/MS analysis
- Assay type: ADME, organism-based
- condition: in vivo
Express the result in mL/min/kg but write the number alone.

State the recorded clearance for this entry: "Cc1ccc(-c2cc(=O)oc3cc(O[C@H](C)C(=O)N4CC5CCC(C4)N5C)ccc23)c(C)c1"
38.2

State the recorded clearance for this entry: "Cc1ccc(-c2cc(=O)oc3cc(O[C@H](C)C(=O)N4CC5CCC(C4)N5)ccc23)c(C)c1"
47.6

----------
- method.description: Inhibition of ND1 transcript level in human A2780 cells at 500 nM measured after 12 hrs by RT-qPCR analysis relative to control
- Type: functional
Parameter threshold = 40%. Response is true (1) when inhibition at 0.5 µM meets or exceeds it, else false (0).

> print(dat)
                                 cpd.smiles  label.value
1  C[C@@H](Oc1ccc2c(-c3ccc(F)cc3Cl)cc(=O)oc2c1)C(=O)NCCC1CCOCC1     true (1)
2  Cc1ccccc1-c1cc(=O)oc2cc(O[C@H](C)C(=O)N3CC4CCC(C3)N4)ccc12    false (0)
3  Cc1cccc(-c2cc(=O)oc3cc(O[C@H](C)C(=O)N4CC5CCC(C4)N5)ccc23)c1    false (0)

Decide: inhibition at 0.5 µM of "C[C@@H](Oc1ccc2c(-c3ccccc3F)cc(=O)oc2c1)C(=O)N1CC2CCC(C1)N2" >= 40%?
false (0)

Decide: inhibition at 0.5 µM of "C[C@@H](Oc1ccc2c(-c3ccc(F)cc3Cl)csc2c1)C(=O)N1CCC[C@H](C(=O)O)C1" >= 40%?
true (1)

Decide: inhibition at 0.5 µM of "CC(C)(Oc1ccc2c(-c3ccc(F)cc3Cl)cc(=O)oc2c1)C(=O)N1CCC[C@H](C(=O)O)C1" >= 40%?
true (1)

----------
# Lookup of reported Cmax keyed by entry
- method.description: Cmax in ICR mouse at 1 mg/kg, iv measured upto 24 hrs by LC-MS/MS analysis
- Type: ADME, organism-based
- Design: time < 24 hrs, dose 1 mg/kg, route iv
- condition: in vivo
Express the result in ng/mL but write the number alone.

> print(dat)
                                 cpd.smiles  recorded.number
1  Cc1ccc(-c2cc(=O)oc3cc(O[C@H](C)C(=O)N4CC5CCC(C4)N5C)ccc23)c(C)c1              364

State the recorded Cmax for this entry: "Cc1ccc(-c2cc(=O)oc3cc(O[C@H](C)C(=O)N4CC5CCC(C4)N5)ccc23)c(C)c1"
234

----------
# Lookup of reported Cmax keyed by entry
- method.description: Cmax in ICR mouse at 10 mg/kg, po measured upto 24 hrs by LC-MS/MS analysis
- Type: ADME, organism-based
- Design: time < 24 hrs, dose 10 mg/kg, route po
- condition: in vivo
Express the result in ng/mL but write the number alone.

> print(dat)
                                 cpd.smiles  reported.metric  recorded.number
1  Cc1ccc(-c2cc(=O)oc3cc(O[C@H](C)C(=O)N4CC5CCC(C4)N5)ccc23)c(C)c1             Cmax             66.6

State the recorded Cmax for this entry: "Cc1ccc(-c2cc(=O)oc3cc(O[C@H](C)C(=O)N4CC5CCC(C4)N5C)ccc23)c(C)c1"
369

----------
- method.description: Inhibition of ND1 transcript level in human A2780 cells at 500 nM measured after 12 hrs by RT-qPCR analysis relative to control
- Format: functional
reported.metric: inhibition at 0.5 µM (%)
Express the result in % but write the number alone.

> print(dat)
                                 cpd.smiles  unit.name  recorded.number
1  C[C@@H](Oc1ccc2c(C3CCCCC3)cc(=O)oc2c1)C(=O)N1CC2CCC(C1)N2          %               31
2  C[C@@H](Oc1ccc2c(-c3ccc(Cl)cc3)cc(=O)oc2c1)C(=O)N1CC2CCC(C1)N2          %               24
3  C[C@@H](Oc1ccc2c(-c3cccc(Cl)c3)cc(=O)oc2c1)C(=O)N1CC2CCC(C1)N2          %               32
4  Cc1cc(F)ccc1-c1cc(=O)oc2cc(O[C@H](C)C(=O)N3CC4CCC(C3)N4)ccc12          %               12
5  O=C(O)[C@H]1CCCN(C(=O)C2(Oc3ccc4c(-c5ccc(F)cc5Cl)cc(=O)oc4c3)CCC2)C1          %               42
6  C[C@@H](Oc1ccc2c(-c3ccc(F)cc3Cl)cc(=O)oc2c1)C(=O)N1CC2CCC(C1)N2          %                8

State the recorded inhibition at 0.5 µM for this entry: "C[C@@H](Oc1ccc2c(-c3ccccc3Cl)cc(=O)oc2c1)C(=O)N1CC2CCC(C1)N2"
15

State the recorded inhibition at 0.5 µM for this entry: "C[C@@H](Oc1ccc2c(-c3ccc(F)cc3Cl)cc(=O)oc2c1)C(=O)N1CCNCC1"
25

State the recorded inhibition at 0.5 µM for this entry: "C[C@@H](Oc1ccc2c(-c3ccccc3)cc(=O)oc2c1)C(=O)N1CC2CCC(C1)N2"
43

----------
- tested.system: Cytochrome P450 1A2 (Homo sapiens, UniProt P05177)
- Sequence (P05177 whole entry): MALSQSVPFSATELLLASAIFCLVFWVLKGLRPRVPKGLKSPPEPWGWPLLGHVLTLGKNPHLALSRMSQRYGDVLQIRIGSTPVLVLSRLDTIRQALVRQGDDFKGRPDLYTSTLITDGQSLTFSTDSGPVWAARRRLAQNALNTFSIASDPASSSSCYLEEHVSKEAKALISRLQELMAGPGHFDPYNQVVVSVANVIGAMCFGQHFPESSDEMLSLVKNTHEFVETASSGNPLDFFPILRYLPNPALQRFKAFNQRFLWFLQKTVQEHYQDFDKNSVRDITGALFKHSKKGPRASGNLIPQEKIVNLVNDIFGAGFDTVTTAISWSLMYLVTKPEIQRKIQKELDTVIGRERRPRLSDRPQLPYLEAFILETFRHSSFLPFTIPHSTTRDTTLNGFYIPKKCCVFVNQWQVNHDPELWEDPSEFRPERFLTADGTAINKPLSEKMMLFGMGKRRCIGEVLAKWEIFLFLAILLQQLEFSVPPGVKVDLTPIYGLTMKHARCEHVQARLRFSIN
pIC50: −log10 of the molar value.
reported.metric: pIC50

Checklist item: pIC50 tested on Cytochrome P450 1A2 (Homo sapiens, UniProt P05177), entry "Cc1ccc(-c2cc(=O)oc3cc(O[C@H](C)C(=O)N4CC5CCC(C4)N5C)ccc23)c(C)c1" , value?
< 4.40

----------
# Lookup of reported inhibition at 0.5 µM keyed by entry
- method.description: Inhibition of ND1 transcript level in human A2780 cells at 500 nM measured after 12 hrs by RT-qPCR analysis relative to control
- Format: functional
Express the result in % but write the number alone.

> print(dat)
                                   compound  recorded.number
1  C[C@@H](Oc1ccc2c(-c3ccc(F)cc3Cl)cc(=O)oc2c1)C(=O)Nc1ccccn1               77

State the recorded inhibition at 0.5 µM for this entry: "C[C@@H](Oc1ccc2c(-c3ccc(F)cc3Cl)cc(=O)oc2c1)C(=O)NCCN1CCOCC1"
82

State the recorded inhibition at 0.5 µM for this entry: "C[C@@H](Oc1ccc2c(-c3ccc(F)cc3Cl)cc(=O)oc2c1)C(=O)N1C2CCC1CNC2"
15

State the recorded inhibition at 0.5 µM for this entry: "C[C@@H](Oc1ccc2c(-c3ccncc3)cc(=O)oc2c1)C(=O)N1CC2CCC(C1)N2"
78

State the recorded inhibition at 0.5 µM for this entry: "C[C@@H](Oc1ccc2c(-c3cccc(F)c3)cc(=O)oc2c1)C(=O)N1CC2CCC(C1)N2"
75

State the recorded inhibition at 0.5 µM for this entry: "C[C@@H](Oc1ccc2c(-c3ccc(F)cc3Cl)cc(=O)oc2c1)C(=O)NCCN(C)C"
31

State the recorded inhibition at 0.5 µM for this entry: "C[C@@H](Oc1ccc2c(-c3ccc(F)cc3Cl)cc(=O)oc2c1)C(=O)NCCN"
26

State the recorded inhibition at 0.5 µM for this entry: "C[C@@H](Oc1ccc2c(-c3ccc(F)cc3Cl)cc(=O)oc2c1)C(=O)N1CCN(C)CC1"
28

State the recorded inhibition at 0.5 µM for this entry: "C[C@@H](Oc1ccc2c(-c3ccc(F)cc3Cl)cc(=O)oc2c1)C(=O)NCCO"
23

State the recorded inhibition at 0.5 µM for this entry: "COCCNC(=O)[C@@H](C)Oc1ccc2c(-c3ccc(F)cc3Cl)cc(=O)oc2c1"
25

State the recorded inhibition at 0.5 µM for this entry: "C[C@@H](Oc1ccc2c(-c3ccc(F)cc3Cl)cc(=O)oc2c1)C(=O)N1CCC[C@H](C(=O)O)C1"
25

State the recorded inhibition at 0.5 µM for this entry: O=C(O)[C@H]1CCCN(C(=O)C2CC(Oc3ccc4c(-c5ccc(F)cc5Cl)cc(=O)oc4c3)C2)C1 (some centres undefined)
101

State the recorded inhibition at 0.5 µM for this entry: "C[C@@H](Oc1ccc2c(-c3ccc(F)cc3Cl)cc(=O)oc2c1)C(=O)N1CC2(COC2)C1"
68

State the recorded inhibition at 0.5 µM for this entry: "C[C@@H](Oc1ccc2c(-c3ccc(F)cc3Cl)cc(=O)oc2c1)C(=O)N1CCC[C@H]1CO"
42

State the recorded inhibition at 0.5 µM for this entry: "C[C@@H](Oc1ccc2c(-c3ccc(F)cc3Cl)cc(=O)oc2c1)C(=O)N1CCS(=O)(=O)CC1"
35

State the recorded inhibition at 0.5 µM for this entry: "Cc1ccc(-c2cc(=O)oc3cc(O[C@H](C)C(=O)N4CC5CCC(C4)N5C)ccc23)c(C)c1"
15
